tested on: Mycolicibacterium phlei; experiment: Antibacterial activity against Mycobacterium phlei; assay type: functional
experimental.readout: MIC (µg/mL)

{"smiles.input": "CO[C@@H]1C/C=C\\C=C\\C[C@H](C)[C@H]2OC(C)(C)O[C@H]([C@H]2C)[C@H](C)[C@H](O)CC(=O)O[C@H]([C@H](C)[C@H](O)/C=C(C)/C=C/CO)C[C@H](O)CCC1", "MIC (µg/mL)": 20}

[P] COc1ccc(COC[C@@H](C)[C@@H]2C[C@H](O)CCC[C@H](OC)C/C=C\C=C\C[C@H](C)[C@@H](O)[C@H](C)[C@@H](O)[C@H](C)[C@H](O)CC(=O)O2)cc1
[Q] CO[C@@H]1C/C=C\C=C\C[C@H](C)[C@@H](O)[C@H](C)[C@@H](O)[C@H](C)[C@H](O)CC(=O)O[C@H]([C@H](C)[C@H](O)/C=C(C)/C=C/C=C/C=C/C=C/C=C/C[C@H](O)/C(C)=C/CCC(=O)O)C[C@H](O)CCC1
Query string: Hello, I am sorting some records. Could you say if P or Q has the smaller MIC value? Please indicate the selected item by its label.
Result string: Q
(Q: 0.12 µg/mL, P: 20 µg/mL)
